target: BRG-1 (Homo sapiens); experiment: ATPase catalytic activity assay of BRG-1 (ADP-Glo); format: biochemical; details: ATPase catalytic activity, ADP-Glo; read-out: BRG1 Max % Inhibition
Emax for assorted compounds

Answered examples (5):
{"compound": "COc1cccc(-c2csc(NC(=O)CNC(=O)c3ccc4c(c3)C(C)(O)COC4)n2)c1 (stereo not shown) [Compound 313]", "Emax": "> 90%"}
{"compound": "C[C@@H]1CN(c2cccc(-c3csc(NC(=O)CNC(=O)c4cnc5c(c4)[C@](C)(CO)CC5)n3)c2)C[C@H](C)O1 [Compound 143]", "Emax": "> 60%"}
{"compound": "C[C@@]1(C#N)COCc2ccc(C(=O)NCC(=O)Nc3nc(-c4cc(F)cc(N5CCC5)c4)cs3)cc21 [Compound 364]", "Emax": "> 95%"}
{"compound": "CC(C)(C#N)c1cccc(C(=O)NCC(=O)Nc2nc(-c3cccc(-c4ccncc4)c3)cs2)c1 [Compound 87]", "Emax": "< 30%"}
{"compound": "Cc1cc(-c2cccc(-c3csc(NC(=O)CNC(=O)c4ccc5c(c4)[C@](C)(CO)CCC5)n3)c2)cc(C)n1 [Compound 232]", "Emax": "> 80%"}

q: Which value of Emax has been reported for Cc1cc(-c2cccc(-c3csc(NC(=O)CNC(=O)c4cc(C)c(C)c(C(C)(C)CN)c4)n3)c2)cc(C)n1 [Compound 245] in the records?
a: > 70%

q: Subsequent entry: Cc1cc(-c2cccc(-c3csc(NC(=O)CNC(=O)c4cccc(S(=O)(=O)C(C)C)c4)n3)c2)ncn1 [Compound 127]
a: > 90%

====

Emax for assorted compounds
biological target: BRG-1 (Homo sapiens, UniProt P51532); experiment: ATPase catalytic activity assay of BRG-1 (ADP-Glo); format: biochemical; details: ATPase catalytic activity, ADP-Glo; read-out: BRG1 Max % Inhibition
Sequence (P51532 whole entry): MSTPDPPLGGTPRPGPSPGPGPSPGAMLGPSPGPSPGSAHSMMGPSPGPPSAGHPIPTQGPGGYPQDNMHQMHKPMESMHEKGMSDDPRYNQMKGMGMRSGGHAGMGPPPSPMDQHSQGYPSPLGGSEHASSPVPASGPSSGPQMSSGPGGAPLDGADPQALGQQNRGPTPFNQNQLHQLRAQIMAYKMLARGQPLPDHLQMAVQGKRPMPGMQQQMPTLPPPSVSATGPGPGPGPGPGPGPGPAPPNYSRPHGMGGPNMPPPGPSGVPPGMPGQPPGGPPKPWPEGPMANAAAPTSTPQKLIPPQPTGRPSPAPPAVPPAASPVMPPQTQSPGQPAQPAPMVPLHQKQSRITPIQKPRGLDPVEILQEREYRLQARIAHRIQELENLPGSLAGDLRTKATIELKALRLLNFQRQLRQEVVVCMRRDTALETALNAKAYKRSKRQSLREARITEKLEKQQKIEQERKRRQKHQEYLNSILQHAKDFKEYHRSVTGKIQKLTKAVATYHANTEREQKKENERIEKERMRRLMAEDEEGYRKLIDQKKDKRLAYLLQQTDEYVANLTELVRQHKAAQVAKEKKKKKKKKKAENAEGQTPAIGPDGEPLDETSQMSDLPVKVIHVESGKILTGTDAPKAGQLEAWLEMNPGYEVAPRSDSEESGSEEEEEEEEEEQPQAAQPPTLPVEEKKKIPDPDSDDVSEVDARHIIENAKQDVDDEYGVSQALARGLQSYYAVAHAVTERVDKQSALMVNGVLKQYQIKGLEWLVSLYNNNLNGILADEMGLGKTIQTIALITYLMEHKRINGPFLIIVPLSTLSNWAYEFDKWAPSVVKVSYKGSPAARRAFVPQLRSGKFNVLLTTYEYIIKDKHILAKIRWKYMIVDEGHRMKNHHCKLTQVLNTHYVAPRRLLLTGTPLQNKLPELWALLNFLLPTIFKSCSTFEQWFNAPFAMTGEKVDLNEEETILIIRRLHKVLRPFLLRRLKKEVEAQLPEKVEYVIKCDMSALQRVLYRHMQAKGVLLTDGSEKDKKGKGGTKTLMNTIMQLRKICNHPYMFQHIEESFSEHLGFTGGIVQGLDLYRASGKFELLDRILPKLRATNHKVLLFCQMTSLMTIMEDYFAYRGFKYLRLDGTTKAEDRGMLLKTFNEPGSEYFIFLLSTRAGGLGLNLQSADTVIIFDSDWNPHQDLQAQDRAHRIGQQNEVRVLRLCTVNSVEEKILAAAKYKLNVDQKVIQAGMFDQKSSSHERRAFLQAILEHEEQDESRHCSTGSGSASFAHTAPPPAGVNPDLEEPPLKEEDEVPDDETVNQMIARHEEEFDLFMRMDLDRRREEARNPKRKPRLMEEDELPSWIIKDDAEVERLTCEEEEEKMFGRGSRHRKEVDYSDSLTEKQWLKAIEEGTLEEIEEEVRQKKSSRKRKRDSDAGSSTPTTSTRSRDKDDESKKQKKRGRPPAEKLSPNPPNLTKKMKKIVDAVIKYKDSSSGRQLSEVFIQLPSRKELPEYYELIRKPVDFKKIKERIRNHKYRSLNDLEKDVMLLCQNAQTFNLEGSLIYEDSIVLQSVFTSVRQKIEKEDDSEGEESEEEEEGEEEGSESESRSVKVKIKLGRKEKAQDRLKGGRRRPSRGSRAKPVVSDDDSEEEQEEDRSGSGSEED

q: Which value of Emax has been reported for C[C@@H]1CN(c2cccc(-c3csc(NC(=O)CNC(=O)c4ccc5c(c4)C(F)(F)COC5)n3)n2)C[C@H](C)O1 in the records?
a: > 95%

q: Subsequent entry: C[C@@H]1CN(c2cccc(-c3csc(NC(=O)CNC(=O)c4ccc5c(c4)[C@@](C)(CO)CC5)n3)c2)C[C@H](C)O1
a: > 90%

====

target: BRG-1 (Homo sapiens, UniProt P51532); experiment: ATPase catalytic activity assay of BRG-1 (ADP-Glo); type: biochemical; settings: ATPase catalytic activity, ADP-Glo; read-out: BRG1 IC50 (μM)*
quantity: IC50

{"compound": "C[C@@H]1CN(c2cccc(-c3csc(NC(=O)CNC(=O)c4ccc5c(c4)[C@@H]([C@@H](C)O)CC5)n3)n2)C[C@H](C)O1", "assayed target": "BRG-1 (Homo sapiens, UniProt P51532)", "IC50": "0.1 to 1 µM"}
{"compound": "C[C@@H]1CN(c2cccc(-c3csc(NC(=O)CNC(=O)c4ccc5c(c4)C4(COC5)COC4)n3)n2)C[C@H](C)O1", "assayed target": "BRG-1 (Homo sapiens, UniProt P51532)", "IC50": "0.1 to 1 µM"}
{"compound": "CC(C)(C)c1cccc(C(=O)NCC(=O)Nc2nc(-c3cccc(N4CCC4)c3)cs2)c1", "assayed target": "BRG-1 (Homo sapiens, UniProt P51532)", "IC50": "1 to 5 µM"}

q: Which value of IC50 has been reported for Cc1nccc(-c2cccc(-c3csc(NC(=O)CNC(=O)c4ccc(C)c(C(C)(C)CN)c4)n3)n2)n1 in the records?
a: 1 to 5 µM

q: Subsequent entry: C[C@@H]1CN(c2cccc(-c3csc(NC(=O)CNC(=O)c4ccc5c(c4)[C@]4(CCO4)COC5)n3)n2)C[C@H](C)O1
a: 0.1 to 1 µM

q: Subsequent entry: COc1cccc(-c2csc(NC(=O)CNC(=O)c3ccc4c(c3)[C@@](C)(F)CCOC4)n2)c1
a: > 5 µM

q: Subsequent entry: CC(C)(CN)c1cccc(C(=O)NCC(=O)Nc2nc(-c3cccc(CO[C@H]4CC[C@H](O)CC4)c3)cs2)c1
a: > 5 µM

q: Subsequent entry: C[C@@H]1CN(c2cccc(-c3csc(NC(=O)CNC(=O)c4ccnc(C(C)(C)CO)c4)n3)c2)C[C@H](C)O1
a: 1 to 5 µM
